- Test system: Balb/c 3T3 cells
- PROCEDURE_TEXT: NRU assay (lysosomal activity), 72 h exposure
- Format: cell-based, murine
- RECORDED_CONDITIONS: Balb/c 3T3, NRU, mean ± SD, n = 3
- Experimental: The human hepatoma (HepG2) and colorectal adenocarcinoma (Caco-2) cells were purchased from the American Type Culture Collection: ATCC HB-8065 and ATCC HTB-37, respectively. These cells were cultured in Minimum Essential Medium Eagle (MEME) (ATCC). […] Cytotoxicity was assessed after 72 h of exposure of the cells to compounds. […] This method is based on staining living cells with neutral red, which readily diffuses through the plasma membrane and accumulates in lysosomes. […]
MEASURED_ENDPOINT: IC50

# COMPOUND, DATA_VALUE
rows = [
    ("N.N.[Cl][Pt][Cl] [Cisplatin, cisplatin]", "> 10 µM"),
]

* * *

- Tested on: S. epidermidis ATCC 12228
- PROCEDURE_TEXT: micro-dilution broth method (MIC, MBC)
- Format: cell-based, Staphylococcus epidermidis
- RECORDED_CONDITIONS: S. epidermidis ATCC 12228
Reported MIC values for the following molecules.
MEASURED_ENDPOINT: MIC (µg/mL)

# MOLECULE, TEST_TARGET, MEASURED_ENDPOINT, DATA_VALUE
records = [
    ("O=[N+]([O-])[O-].[Ag+] [AgNO3, Silver nitrate]", "S. epidermidis ATCC 12228", "MIC", 3.9),
    ("Cc1ncc([N+](=O)[O-])n1CCO.Cc1ncc([N+](=O)[O-])n1CCO.Cc1ncc([N+](=O)[O-])n1CCO.Cc1ncc([N+](=O)[O-])n1CCO.O=S(=O)([O-])[O-].[Ag+].[Ag+] [[Ag(MTZ)2]2SO4]", "S. epidermidis ATCC 12228", "MIC", 7.8),
    ("Cc1ncc([N+](=O)[O-])n1CCO.Cc1ncc([N+](=O)[O-])n1CCO.O=[N+]([O-])[O-].[Ag+] [[Ag(MTZ)2NO3]]", "S. epidermidis ATCC 12228", "MIC", 7.8),
    ("O=S(=O)([O-])[O-].[Ag+].[Ag+] [Ag2SO4, silver sulfate]", "S. epidermidis ATCC 12228", "MIC", 15.6),
]

* * *

Reported MIC values for the following molecules.
- Test system: P. aeruginosa ATCC 9027
- PROCEDURE_TEXT: micro-dilution broth method (MIC, MBC)
- Format: cell-based, Pseudomonas aeruginosa
- RECORDED_CONDITIONS: P. aeruginosa ATCC 9027

# MOLECULE, QUANTITY_UNIT, MIC
measured = [
    ("Cc1ncc([N+](=O)[O-])n1CCO.Cc1ncc([N+](=O)[O-])n1CCO.O=[N+]([O-])[O-].[Ag+] [[Ag(MTZ)2NO3]]", "µg/mL", 7.8),
    ("Cc1ncc([N+](=O)[O-])n1CCO.Cc1ncc([N+](=O)[O-])n1CCO.Cc1ncc([N+](=O)[O-])n1CCO.Cc1ncc([N+](=O)[O-])n1CCO.O=S(=O)([O-])[O-].[Ag+].[Ag+] [[Ag(MTZ)2]2SO4]", "µg/mL", 7.8),
    ("O=S(=O)([O-])[O-].[Ag+].[Ag+] [Ag2SO4, silver sulfate]", "µg/mL", 62.5),
    ("O=[N+]([O-])[O-].[Ag+] [AgNO3, Silver nitrate]", "µg/mL", 3.9),
]
